Target: TBK1 (Homo sapiens (Human), UniProt Q9UHD2)
Sequence (Q9UHD2 whole entry): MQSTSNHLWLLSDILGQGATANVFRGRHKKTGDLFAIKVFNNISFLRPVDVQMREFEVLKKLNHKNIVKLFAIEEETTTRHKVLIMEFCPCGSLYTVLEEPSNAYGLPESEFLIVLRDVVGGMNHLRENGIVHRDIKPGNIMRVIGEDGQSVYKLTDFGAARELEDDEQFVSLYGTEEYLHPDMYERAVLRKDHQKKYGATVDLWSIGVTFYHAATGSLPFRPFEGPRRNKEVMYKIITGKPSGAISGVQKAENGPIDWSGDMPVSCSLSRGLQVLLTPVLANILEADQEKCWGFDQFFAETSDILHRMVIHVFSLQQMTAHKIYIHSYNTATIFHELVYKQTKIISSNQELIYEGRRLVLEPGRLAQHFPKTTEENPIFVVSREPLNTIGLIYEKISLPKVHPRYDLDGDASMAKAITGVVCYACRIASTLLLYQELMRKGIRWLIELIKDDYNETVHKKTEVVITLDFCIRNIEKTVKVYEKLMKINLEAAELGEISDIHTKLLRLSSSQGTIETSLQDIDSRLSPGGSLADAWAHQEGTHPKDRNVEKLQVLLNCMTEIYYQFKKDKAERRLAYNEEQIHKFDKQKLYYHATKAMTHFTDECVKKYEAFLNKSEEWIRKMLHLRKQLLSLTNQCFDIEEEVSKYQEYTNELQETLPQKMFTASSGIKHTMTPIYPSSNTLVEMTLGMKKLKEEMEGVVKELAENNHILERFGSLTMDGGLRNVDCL
Assay: TR-FRET kinase assay, TBK1
Conditions: read-out: TBK1-IC50; full length recombinant TBK1 2.5 nM, 2x Km ATP, 1 μM peptide, 240 min at 25° C.; geometric mean of minimum four determinations
pIC50: −log10 of the molar value.
Entry flag: satisfied if pIC50 reaches 8; not satisfied if it does not.

Compound: CC(C)(C)OC(=O)N1CC[C@@H](Oc2ccc(-c3ccnc4[nH]c(-c5ccc(N6CCOCC6)cc5)nc34)cc2C#N)C1
Class Label: not satisfied
//
Compound: N#Cc1cc(-c2ncnc3[nH]c(-c4ccc(N5CCOCC5)c(F)c4)nc23)ccc1OC1CCOCC1
Class Label: satisfied
//
Compound: CN1CCN(c2ccc(-c3cc4c(-c5ccc(OC6CCOCC6)c(C#N)c5)ccnc4[nH]3)cc2)CC1
Class Label: satisfied
//
Compound: CC1(C)C(=O)Nc2cc(-c3cc4c(-c5ccc(OC6CCOCC6)c(C#N)c5)ncnc4[nH]3)ccc21
Class Label: satisfied
//
Compound: N#Cc1cc(-c2ccnc3[nH]c(C4=CC5CCC4C5)cc23)ccc1OC1CCOCC1 (stereo not drawn)
Class Label: not satisfied

We now examine a further compound.
Data request: // inclusive: pIC50 at least 8? input: Cc1ncc(-c2nc3c(-c4ccc(OC5CCOCC5)c(C#N)c4)ncnc3[nH]2)s1
Data returned: not satisfied
